- SYSTEM_TESTED: T1, mouse IL-2Rγ, recombinant protein (mouse, UniProt P34902 23-263, limits assumed)
- T1 sequence (looked up): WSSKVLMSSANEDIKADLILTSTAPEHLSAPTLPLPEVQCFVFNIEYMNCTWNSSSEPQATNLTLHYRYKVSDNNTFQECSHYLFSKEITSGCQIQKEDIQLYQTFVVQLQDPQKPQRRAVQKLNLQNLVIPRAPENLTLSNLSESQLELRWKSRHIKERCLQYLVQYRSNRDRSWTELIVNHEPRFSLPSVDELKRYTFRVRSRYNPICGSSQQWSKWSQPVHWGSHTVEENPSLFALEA
- TEST_SUMMARY: P.E. binding ELISA
Provide the reported OD450 nm of each item.
One number for each entry, in OD450 nm.

## Task What does the record list as OD450 nm for 31-MP04E03 VHH (periplasmic extract) (VHH, soluble VHH in periplasmic extract) VHH: QVQLVESGGGLVQAGGSLRLSCTGYGGAFTGYALGWFRQAPGKEREFVARINWSGSFTYYASSVKGRFTISRDNAKNTMYLQMNNLKPEDTAVYYCAADNPSTLATDYDNWGQGTQVTVSS ?
## Result 0.495

## Task Proceed to 38-MP07A11 VHH (periplasmic extract) (VHH, soluble VHH in periplasmic extract) VHH: QVQLVESGGGLVQAGGSLRLSCAASGRSLSRDAMGWFRQAPGKEREFVAVMSWGGDTFYTDSVEGRFTFSRDNAKNAVYLEMNDLQPEDTAVYYCAAAPTSFATTAYSSSNSYSYWGRGTQVTVSS
## Result 0.173

## Task For 28-MP04D02 VHH (periplasmic extract) (VHH, soluble VHH in periplasmic extract) VHH: QVQLVESGGGLVQAGGSLRLSCAASGRTLSRYAMGWFRQAPGKEREFVTANSWGGDTYYADSVQGRFTFSRDNAKNTVYLQMNSLQPEDTAVYYCAAAPTSFATTAYSGSNSYAYWGQGTQVTVSS then?
## Result 0.054

## Task Would you mind doing 34-MP04A12 VHH (periplasmic extract) (VHH, soluble VHH in periplasmic extract) VHH: QVQLVESGGGLVQAGSSLRLSCAASGRTLSRLAMGWFRQAPGKEREFVAVNSWGGDTFYADSVEGRFTYSRDNAKSAVYLQMNSLQPEDTAVYYCAAAPTSFATTAYSSSNSYAYWGQGAQVTVSS as well?
## Result 3.6

For the next question, use this binder.
## Task Reported OD450 nm, binder 37-MP07F09 VHH (periplasmic extract) (VHH, soluble VHH in periplasmic extract) VHH: QVQLVESGGGLVQAGGSLRLSCAASGRTLSRYAMGWFRQAPGKEREYVAIDSWGGDTFYADSVEGRFTFSRDNAKNEVYLQMNSLQPEDTAVYYCAGAPTSFATTAYSSSNSYRYWGQGTQVTVSS : ____
## Result 1.49
